Target: furin, P09958;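 note: purified furin at 1:10 enzyme:substrate in 50 mM HEPES pH 7.5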
Sequence (P09958 whole entry): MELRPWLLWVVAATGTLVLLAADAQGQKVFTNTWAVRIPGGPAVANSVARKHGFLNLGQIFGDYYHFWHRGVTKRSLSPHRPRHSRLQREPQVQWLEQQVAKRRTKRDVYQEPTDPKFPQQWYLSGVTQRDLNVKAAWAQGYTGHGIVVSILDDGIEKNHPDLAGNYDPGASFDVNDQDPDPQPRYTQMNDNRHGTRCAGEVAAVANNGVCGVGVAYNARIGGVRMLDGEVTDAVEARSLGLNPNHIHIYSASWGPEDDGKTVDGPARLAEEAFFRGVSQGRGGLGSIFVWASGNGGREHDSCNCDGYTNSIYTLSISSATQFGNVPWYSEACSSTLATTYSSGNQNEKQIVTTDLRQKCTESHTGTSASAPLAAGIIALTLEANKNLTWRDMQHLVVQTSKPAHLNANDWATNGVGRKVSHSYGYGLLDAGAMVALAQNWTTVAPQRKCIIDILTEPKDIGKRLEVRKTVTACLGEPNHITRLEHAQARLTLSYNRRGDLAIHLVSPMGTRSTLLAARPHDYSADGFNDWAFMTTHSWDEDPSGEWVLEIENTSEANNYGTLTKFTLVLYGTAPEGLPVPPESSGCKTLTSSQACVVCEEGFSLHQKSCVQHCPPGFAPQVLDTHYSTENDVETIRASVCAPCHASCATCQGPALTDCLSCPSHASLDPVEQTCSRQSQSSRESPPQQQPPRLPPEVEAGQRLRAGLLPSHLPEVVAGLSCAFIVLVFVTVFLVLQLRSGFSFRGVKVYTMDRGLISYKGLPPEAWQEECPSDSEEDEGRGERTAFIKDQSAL
Assay: furin cleavage Z-score vs untreated control; higher = more cleavage, active = 3.5 or more, inactive = 1 or less, 8 variable residues between constant flanks
Settings: 7.5 min
This is one part of the list. How many sequences the whole screen found active is unknown.
PROPERTY_MEASURED: furin cleavage Z-score
Please reply with the number alone, leaving off any unit.

Sample records with furin cleavage Z-score:
Q) Identify measured furin cleavage Z-score corresponding to CARFRRGARSAGNASASA [FS-1703]
A) 10.1

Q) Identify measured furin cleavage Z-score corresponding to CAMLAEQFKQAGNASASA [HC1022]
A) 1.62

Q) Identify measured furin cleavage Z-score corresponding to CAVVCCSRSYAGNASASA [HC2053]
A) -1.24

Q) Identify measured furin cleavage Z-score corresponding to CARFWRSTGFAGNASASA [FS-2669]
A) 0.601

Q) Identify measured furin cleavage Z-score corresponding to CARAKKIFGWAGNASASA [FS-1680]
A) 1.69

Q) Identify measured furin cleavage Z-score corresponding to CASRVRTGRSAGNASASA [FS-1417]
A) 9.44

Others:
Q) Identify measured furin cleavage Z-score corresponding to CAMEVCSQHLAGNASASA [HC1710]
A) 0.136

Q) Identify measured furin cleavage Z-score corresponding to CAELSRTGRSAGNASASA [FS-22]
A) 3.94

Q) Identify measured furin cleavage Z-score corresponding to CAMEEHSQHLAGNASASA [HC9]
A) -0.427

Q) Identify measured furin cleavage Z-score corresponding to CATCNRRKKEAGNASASA [FS-1492]
A) 0.181

Q) Identify measured furin cleavage Z-score corresponding to CARIKRMVFKAGNASASA [FS-1722]
A) 5.13

Q) Identify measured furin cleavage Z-score corresponding to CARGARVVFKAGNASASA [FS-2930]
A) -2.06

Q) Identify measured furin cleavage Z-score corresponding to CAALNRRKKQAGNASASA [FS-747]
A) 3.62

Q) Identify measured furin cleavage Z-score corresponding to CARFRRGLDNAGNASASA [FS-1704]
A) 10.1

Q) Identify measured furin cleavage Z-score corresponding to CAVRVLEDGVAGNASASA [HC238]
A) -0.328
